Parameter SPOT signal as a fraction of Bim BH3's signal on the same receptor and array: see the listing below.
Target: Bcl-2, P10415
Sequence (P10415 1-217): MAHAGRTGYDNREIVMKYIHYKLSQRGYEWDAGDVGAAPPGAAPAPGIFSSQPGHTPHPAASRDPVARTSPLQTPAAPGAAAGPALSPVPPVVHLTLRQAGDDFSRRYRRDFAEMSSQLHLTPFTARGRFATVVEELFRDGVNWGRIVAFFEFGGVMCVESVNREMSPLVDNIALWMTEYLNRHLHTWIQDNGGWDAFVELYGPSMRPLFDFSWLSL
Experiment: peptide SPOT array, c-Myc-tagged receptor at 1 uM or 100 nM, anti-c-Myc-Cy3
measuredQuantity: SPOT signal as a fraction of Bim BH3's signal on the same receptor and array

binder="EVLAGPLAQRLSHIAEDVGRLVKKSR [ARHGAP4]" measuredresult=0.1
binder="HRTSNVLTLSLKRFANFSGGKITKDV [USP36]" measuredresult=0.2
binder="RYPILENPEILRKTADDFLNRIALTD [CCNH]" measuredresult=0.04
